Data provenance is PubChem BioAssay (NCI).

- Test system: KM12 colon
- METHOD_DESCRIPTION: NCI tumour cell line growth inhibition, 48 h
READOUT_LABEL: log10 TGI (log10 of the value in µM)
Note: values are log10 of TGI expressed in µM.

Incoming: Give the measured log10 TGI of COc1ccc(C2CC(=O)CC(c3ccc(OC)cc3)C23C(=O)NC(=O)NC3=O)cc1 (stereo not given) .
Outgoing: 1.86

Incoming: What value of log10 TGI has been reported for the following molecule? COc1ccc(CC2c3cc(Oc4cc(CC5c6cc(OC)c(OC)cc6CCN5C)ccc4O)c(OC)cc3CCN2C)cc1 (stereo not given)
Outgoing: 0.73

Incoming: Look up log10 TGI for this molecule: CC(C)(C)C(=O)OCOP(=O)(OCOC(=O)C(C)(C)C)C1CCCN(O)C1=O (stereo not given)
Outgoing: 1.12

Incoming: Name the recorded log10 TGI for Cc1ccc(C(SCC(N)C(=O)O)(c2ccccc2)c2ccc(C)cc2)cc1 (stereo not given) .
Outgoing: 1.11

Incoming: Requested read-out: log10 TGI. Entry: "CC(C)(C)[SiH]12(OC(C(F)(F)F)(C(F)(F)F)c3ccccc31)OC(C(F)(F)F)(C(F)(F)F)c1ccccc12"
Outgoing: 1.18

Incoming: So what does the record say about log10 TGI for COc1ccc(C2CC(c3cccc(Nc4ccncc4)c3)=NN2c2cc(Cl)cc(Cl)c2)cc1 (stereo not given) ?
Outgoing: 0.52

Incoming: Could you share which log10 TGI value was measured for "C[N+](C)([O-])CCC=C1c2ccccc2CCc2ccccc21" ?
Outgoing: 1.56

Incoming: Given the molecule "COc1cc(-c2cc(=O)c3c(OC)c(OC)c(OC)c(OC)c3o2)c(OC)c(OC)c1OC" , what is its reported log10 TGI?
Outgoing: 1.96
